system: human non-small cell lung cancer A549 cells; experiment: Inhibitory action on the proliferation of A549 cells; format: cell-based; conditions: Homo sapiens, A549; 96 hours culture, TetraColor ONE
IC50 values, listed per item
recordedMetric: IC50 (ng/mL)

molecule | systemName | result
COc1cc2c3c(c4ccc(O)cc4c2c(OC)c1OC)[C@H](O)[C@@H]1CCCN1C3.Cl | human non-small cell lung cancer A549 cells | 560
Cl.Oc1ccc2c3c(c4ccc(F)cc4c2c1)CN1CCC[C@H]1[C@H]3O | human non-small cell lung cancer A549 cells | 152
Cl.Oc1ccc2c3c(c4cc5c(cc4c2c1)OCO5)CN1CCC[C@H]1[C@H]3O | human non-small cell lung cancer A549 cells | 19.3
CCOc1cc2c3c(c4ccc(O)cc4c2cc1OCC)[C@H](O)[C@@H]1CCCN1C3.Cl | human non-small cell lung cancer A549 cells | 0.27
COc1cc2c3c(c4ccc(O)cc4c2cc1OC)C(N)[C@@H]1CCCN1C3.Cl (stereo partly shown) | human non-small cell lung cancer A549 cells | 265
COc1cc2c3c(c4ccc(O)cc4c2cc1OC)C(O)C1(C)CCCN1C3.Cl (stereo not shown) | human non-small cell lung cancer A549 cells | 757
Cl.Oc1ccc2c3c(c4ccccc4c2c1)CN1CCC[C@H]1[C@H]3O | human non-small cell lung cancer A549 cells | 108
CCOc1cc2c3c(c4ccc(O)cc4c2cc1OCC)C[C@@H]1CCCN1C3.Cl | human non-small cell lung cancer A549 cells | 2.1
COc1cc2c3c(c4ccc(O)cc4c2cc1OC)C[C@@H]1CCCN1C3.Cl | human non-small cell lung cancer A549 cells | 0.024
Cl.Oc1ccc2c3c(c4cc5c(cc4c2c1)OCO5)CN1CCC[C@H]1C3 | human non-small cell lung cancer A549 cells | 48.2
COc1cc2c3c(c4ccc(O)cc4c2cc1OC)CN1CCC[C@H]1[C@H]3O.Cl | human non-small cell lung cancer A549 cells | 34
COc1cc2c3c(c4ccc(O)cc4c2cc1OC)C[C@H]1CCCN1C3.Cl | human non-small cell lung cancer A549 cells | 12.7
COc1cc2c3c(c4ccc(O)cc4c2c(OC)c1OC)[C@@H](O)[C@H]1CCCN1C3.Cl | human non-small cell lung cancer A549 cells | 2.5
